Attribute: apparent KD of K4 kissing-loop reporter
System: K4 kissing-loop RNA reporter;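 note: bound reporter read as fluorescence of individual clusters on recovered sequencing chips by microscopy, with normalized cluster intensities fitted with a binding model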
Test: apparent KD of K4 kissing-loop reporter; higher = weaker reporter binding
Conditions: Eterna round: R107; input ligand: tryptophan 2.4 mM
Use nM as the unit, but write only the number.

Past entries and their recorded results:
GACGGGUUCCUGCUCAAUCCGUCGCAUGAUCGAGGACCGGUACGGCCGCCACUCGAGGCCAUGCCGUACGAGUGAUGUUCGUGCG [Xeon] :: 200
AAACUUGCAGUGAUGUUGCAAGUAGGUGAUACCAGCAUCGAAAGAUGCCCUUGGCAGCACCAUCUUGCAACAAAGGUGCUGCCAA [(H1)-(H2)-(T1)-(T2)-(H)'-(T)'_Design7] :: 81.2
AGAUGACACGGAGGAUAUCCUAAUAUGGGUGAUGUUAGCGAUGUUGAAGGUGUAGUGAUGUUAUGCGGAGAAGGCCGUGUUGUUU [BDazzled - #22 - Exc. FMN B] :: 96.1
AACCCAUGACUGGAUACCAGACUAUACAUGCUGAGUGAUGUUUAGCGGAGUCAUCUCUCGGUCCCUUGGCAGCCAACGUCACGCG [theeternabot_sameState_KL_Theo_B_33] :: 373
AUCGAUAUCAGAGGAUAUGCUUAAUUGAUUUAUUAUUAUUUAUUAUGCAGUGAUGUUGCAUUUUUUGCAGAAGGCUGAUUUCGAA [JR_SSFMNB_Sub022] :: 117
UCUUGAGUAUAUGAUACCAGCAGUGAGAGACAGGAAGUAUAGUGAUGUUAUAUGAGAGAAUGCCCUUGGCAGCGUGUGCGGUGGG [SSTheophylB.S] :: 94.7

[in] Item AAACGUUGGUGCGAUACCAGCUUGAUCGGUAAACGAUCUACUGGAGUGAUGUUCCUAAAUAGCCCUUGGCAGCGCACCGACGAAA [MAT - Same State Theophlline B - Mod of Eli - D8] has what recorded apparent KD of K4 kissing-loop reporter?
[out] 166

[in] Fill in the blank: the reported apparent KD of K4 kissing-loop reporter of AAUAAAAUCACGGCCGCCACUGAAUAAUUACGAAGUAGUGAUGUUACUUCACAUAUCUUAUUUAACAGGACCGGGUGAAUAUUUA [#16 K4 Tryptophan B Exclusion] is ____.
[out] 81.8

[in] GET /values?readout=apparent KD of K4 kissing-loop reporter&item= AGACUACCACACUGUCAAUAGACAGUGAACUCGGAUAUGCUGAUAAGCAGAAGGAGUGAUGUUCCCAGGUAGUCAAUAAAAUAAU [FmnAX 13 C32+C66]
[out] 142

[in] Please report the recorded apparent KD of K4 kissing-loop reporter for AUUCAGAUCUGAAGGAGCGCCUUGACAAAUUACUGCUUUGAGCAGUGAUGUUGCUCAAUUAGGCAGGUAGGUCGCAGAUCUAACC [Arg B Ex t7] .
[out] 389

[in] Could you tell me which apparent KD of K4 kissing-loop reporter is on file for UAAGAGGACCACUGCAAGAGUCCUCGAAUACGAGGACCGGUACGGCCGCCACUCGAUAACUUGUAGUGAUGUUGCAAGUAAGAAU [BrourdMod 1 - Jieux - Same State Tryptophan A] ?
[out] 42.9

[in] Name the reported apparent KD of K4 kissing-loop reporter value associated with the sequence GUAGCACUUGACAGUGAUGUUGUCAAGGACAAGGAUAUCAUCUCAAUGAGAAGGUGUCCUUGAUAACAGCUACGGGAAUAUCCCA [Omei KL FMN A Exc D v3]
[out] 123

[in] Which measured apparent KD of K4 kissing-loop reporter value corresponds to GGUAGCAUGGCGGCCGCCACUAACAACCUCACCUGCGGCUCGAUCGAGUGAUGUUCGAACGCAAUUAGGACCGGGCCAUGCUACC ?
[out] 122

[in] I'd like to know its apparent KD of K4 kissing-loop reporter. The sequence in question is GGCUUGCCAGUGAUGUUGGCAUAAACUGAAGGAGCGCGUGAAAACGCAGGUAGGUCGCAGAACCUUGCCAACUAUUUUAUUUGCC [Ex Arginine A K4 24]
[out] 210

[in] Which apparent KD of K4 kissing-loop reporter is listed for GGGUCAGUCUGAAGGAGCGGCCAGACAGAGCAGUGAUGUUGCUCCUCCGGAAACGGUGUCGGCCAGGUAGGUCGCAGAUUGGCUC [Dienralais mod v1] ?
[out] 124

[in] Would you mind telling me what apparent KD of K4 kissing-loop reporter value was observed for CCAGGAUGAUGAGGAUGAUGAAUUACUGAAGGAGCGCAUAUGGUUGCAGGUAGGUCGCGGUGAAUAAGUAUAGUGAUGUUAUGCC [SSArgA.X] ?
[out] 427

[in] Please report the recorded apparent KD of K4 kissing-loop reporter for UGUGGAGAAUAUGAUACCAGCAGUGAGAGAGAGGAAGUAUAGUGAUGUUAUAUGAGAGAAUGCCCUUGGCAGCAUAUGUAGUAGG [SSTheophylB.G] .
[out] 188

[in] If you can, please state the reported apparent KD of K4 kissing-loop reporter value of UUGUUUUACUGAAGGAGCGGCAAUUGAUACGUAGAUAUAGUGAUGUUAUAUAAGAUAGAGAGCCAGGUAGGUCGCAGAUUUUUUU [ExArgB.V] .
[out] 118

[in] Recorded apparent KD of K4 kissing-loop reporter of GGGAAGAAGGCGGCCGCCACUGCAGAAGAGACAGAGAGGGAAGAAGAGGAGUGAUGUUCCAAGAACAGGACCGGGCCAAGAAGGG [whbob_SS_Tryp_B_t29] , please.
[out] 92.9

[in] Look up apparent KD of K4 kissing-loop reporter: AGUCCGCUCCAAGGAUAUAGUCCGGCUGCGCGUCAGUGAUGUUGAAGAAGUAUCGCGUCUCUAUAGCUAGAAGGUGGCGCAAUUG [theeternabot_sameState_KL_FMN_B_20]
[out] 782

[in] # apparent KD of K4 kissing-loop reporter lookup, item AAUGUACAGGGAAGGAGCGCCGUCCAGUGAUGUUGGAGUUAAAUACCAGUGAUGUUGGUUAGGCAGGUAGGUCGCCCUAUAGUAU [#07 K4 Arginine B Exclusion]
[out] 108

[in] Would you mind telling me what apparent KD of K4 kissing-loop reporter value was observed for UGAUAAAGCAGUGAUGUUGCAAGUAAUGAUACCAGUUAAGAAGAGAACCCUUGGCAGCAUAAAGUGCGCUCUGAUGAGUGUGCUU [whbob_SS_Theo_A_w52] ?
[out] 95.6

[in] What measured apparent KD of K4 kissing-loop reporter goes with GCCGUAGAUUGAAGGAGCGGGAGAGGGAAAGUGAUGUUUUCUCUAUGACGGCGUCCUCGAUCCCAGGUAGGUCGCAAUCUACGGC ?
[out] 105
